Tested on: NV in replicon harboring cells (HG23 cells)
Assay: Cell-based assay: virus replication in NV replicon harboring cells (HG23 cells), qRT-PCR
Parameters: species or system norovirus (NV)
Settings: Table 1, ester prodrugs; HG23 cells, 48 h; read-out: EC50 (50% effective concentration in cell culture)
Procedure: The effects of each inhibitor on virus replication were examined against NV in the NV replicon harboring cells (HG23 cells). Briefly, confluent and semi-confluent HG23 cells were incubated with medium containing DMSO (<0.1%) or each compound (up to 200 uM) for 48 h. After the incubation, total RNA was extracted and viral genome was quantitated with real-time quantitative RT-PCR (qRT-PCR). The EC50 values were determined by GraphPadPrism software.
Define the label as yes (1) when EC50 is strictly less than 300 nM and as no (0) in all remaining cases.

# compound, assigned-label
rows = [
    ("CCCCCC(=O)OC([C@H](C[C@@H]1CCNC1=O)NC(=O)[C@H](CC1CCCCC1)NC(=O)OCc1cccc(Cl)c1)S(=O)(=O)O (some centres unmarked) [Compound 11]", "yes (1)"),
    ("CC(C)C[C@H](NC(=O)OCc1ccccc1)C(=O)N[C@@H](C[C@@H]1CCNC1=O)C(OC(=O)c1ccccc1)S(=O)(=O)O (some centres unmarked) [Compound 7]", "no (0)"),
    ("O=C(N[C@@H](CC1CCCCC1)C(=O)N[C@@H](C[C@@H]1CCNC1=O)C(OC(=O)C1CCCCC1)S(=O)(=O)O)OCc1cccc(Cl)c1 (some centres unmarked) [Compound 14]", "yes (1)"),
    ("CCCCCCCC(=O)OC([C@H](C[C@@H]1CCNC1=O)NC(=O)[C@H](CC(C)C)NC(=O)OCc1ccccc1)S(=O)(=O)O (some centres unmarked) [Compound 6]", "no (0)"),
    ("CC(=O)OC([C@H](C[C@@H]1CCNC1=O)NC(=O)[C@H](CC(C)C)NC(=O)OCc1ccccc1)S(=O)(=O)O (some centres unmarked) [Compound 1]", "no (0)"),
    ("CC(=O)OC([C@H](C[C@@H]1CCNC1=O)NC(=O)[C@H](CC1CCCCC1)NC(=O)OCc1ccccc1)S(=O)(=O)O (some centres unmarked) [Compound 15]", "yes (1)"),
    ("CCCCCCCC(=O)OC([C@H](C[C@@H]1CCNC1=O)NC(=O)[C@H](CC1CCCCC1)NC(=O)OCc1cccc(Cl)c1)S(=O)(=O)O (some centres unmarked) [Compound 12]", "yes (1)"),
    ("CCCC(=O)OC([C@H](C[C@@H]1CCNC1=O)NC(=O)[C@H](CC(C)C)NC(=O)OCc1ccccc1)S(=O)(=O)O (some centres unmarked) [Compound 3]", "no (0)"),
    ("CCCCCCOC(=O)OC([C@H](CC1CCNC1=O)NC(=O)[C@H](CC1CCCCC1)NC(=O)OCc1cccc(Cl)c1)S(=O)(=O)O (some centres unmarked) [Compound 17]", "yes (1)"),
    ("CCC(=O)OC([C@H](CC1CCNC1=O)NC(=O)[C@H](CC1CCCCC1)NC(=O)OCc1cccc(Cl)c1)S(=O)(=O)O (some centres unmarked) [Compound 10]", "yes (1)"),
    ("CC(C)C(=O)OC([C@H](C[C@@H]1CCNC1=O)NC(=O)[C@H](CC1CCCCC1)NC(=O)OCc1cccc(Cl)c1)S(=O)(=O)O (some centres unmarked) [Compound 13]", "yes (1)"),
    ("CCC(=O)OC([C@H](C[C@@H]1CCNC1=O)NC(=O)[C@H](CC(C)C)NC(=O)OCc1ccccc1)S(=O)(=O)O (some centres unmarked) [Compound 2]", "no (0)"),
    ("CC(=O)OC([C@H](C[C@@H]1CCNC1=O)NC(=O)[C@H](CC1CCCCC1)NC(=O)OCc1cccc(Cl)c1)S(=O)(=O)O (some centres unmarked) [Compound 9]", "yes (1)"),
    ("CCCCC(=O)OC([C@H](C[C@@H]1CCNC1=O)NC(=O)[C@H](CC(C)C)NC(=O)OCc1ccccc1)S(=O)(=O)O (some centres unmarked) [Compound 4]", "no (0)"),
    ("O=C(N[C@@H](CC1CCCCC1)C(=O)N[C@@H](C[C@@H]1CCNC1=O)C(OC(=O)C1CCCCC1)S(=O)(=O)O)OCc1ccccc1 (some centres unmarked) [Compound 16]", "yes (1)"),
]
